Tested on: A-431
MEASUREMENT PROTOCOL: Antiproliferative activity against human A431 cells after 72 hrs by SRB assay
Type: functional, cell-based
REPORTED CONDITIONS: A-431, 72 h
pIC50: −log10 of the molar value.
Would you please tag the item Satisfied when its pIC50 is 6 or above, and Not satisfied when it is below?

Ask: Exam item: decide whether the reported pIC50 for `COCCCNC(=O)Nc1cc2c(Nc3ccc(F)c(Cl)c3)ncnc2cc1O[C@H]1CCOC1` is at least 6.
Result: Not satisfied

Ask: Exam item: decide whether the reported pIC50 for `CN(C)CCCN(C)C(=O)Nc1cc2c(Nc3ccc(F)c(Cl)c3)ncnc2cc1O[C@H]1CCOC1` is at least 6.
Result: Satisfied

Ask: Exam item: decide whether the reported pIC50 for `CS(=O)(=O)CCNC(=O)Nc1cc2c(Nc3ccc(F)c(Cl)c3)ncnc2cc1O[C@H]1CCOC1` is at least 6.
Result: Not satisfied

More entries:
Ask: Exam item: decide whether the reported pIC50 for `O=C(Nc1cc2c(Nc3ccc(F)c(Cl)c3)ncnc2cc1O[C@H]1CCOC1)N1CCC(F)(F)CC1` is at least 6.
Result: Not satisfied
